Some molecules, each annotated with its measured Population Hoechst High Intensity Objects (%).
tested on: U2OS; assay: Multiplex assay against U2OS; type: toxicity, cell-based; conditions: human, 48 h, 10 µM, compound concentration 10 uM
Recorded Endpoint: Population Hoechst High Intensity Objects (%)

molecule=CN1CCN(c2cc(-c3ccccc3)nc(N)n2)CC1 measurement_target=U2OS display_unit=% experimental_result=1
molecule=CCOC(=O)c1cnn(-c2ccc(NC(=O)C(Cl)=C(Cl)Cl)cc2)c1C(F)(F)F measurement_target=U2OS display_unit=% experimental_result=0
molecule="CC(C)CNc1nc(N2CCN(CC3CCCOC3)CC2)ncc1C(=O)NCc1ccccc1 (stereo unspecified)" measurement_target=U2OS display_unit=% experimental_result=0
molecule=NCCc1cn(S(=O)(=O)c2c(Cl)nc3sccn23)c2ccccc12.O=C(O)C(=O)O measurement_target=U2OS display_unit=% experimental_result=7
molecule=CC(=O)NCC(=O)N1[C@@H]2CC[C@H]1c1ccc(Nc3ncc(C(F)(F)F)c(NC4CCC4)n3)cc12 measurement_target=U2OS display_unit=% experimental_result=0
molecule="CN1C[C@H](C(=O)N[C@]2(C)O[C@@]3(O)[C@@H]4CCCN4C(=O)[C@H](Cc4ccccc4)N3C2=O)C[C@@H]2c3cccc4[nH]cc(c34)C[C@H]21.CS(=O)(=O)O [DIHYDROERGOTAMINE MESYLATE]" measurement_target=U2OS display_unit=% experimental_result=3
